Data provenance is patent US20260216157A1.

Biological target: CYP1A2 (Homo sapiens)
Construct: co-incubated with human liver microsomes and test compounds; from tissue; host or cells: human liver microsomes
Sequence (P05177 whole entry): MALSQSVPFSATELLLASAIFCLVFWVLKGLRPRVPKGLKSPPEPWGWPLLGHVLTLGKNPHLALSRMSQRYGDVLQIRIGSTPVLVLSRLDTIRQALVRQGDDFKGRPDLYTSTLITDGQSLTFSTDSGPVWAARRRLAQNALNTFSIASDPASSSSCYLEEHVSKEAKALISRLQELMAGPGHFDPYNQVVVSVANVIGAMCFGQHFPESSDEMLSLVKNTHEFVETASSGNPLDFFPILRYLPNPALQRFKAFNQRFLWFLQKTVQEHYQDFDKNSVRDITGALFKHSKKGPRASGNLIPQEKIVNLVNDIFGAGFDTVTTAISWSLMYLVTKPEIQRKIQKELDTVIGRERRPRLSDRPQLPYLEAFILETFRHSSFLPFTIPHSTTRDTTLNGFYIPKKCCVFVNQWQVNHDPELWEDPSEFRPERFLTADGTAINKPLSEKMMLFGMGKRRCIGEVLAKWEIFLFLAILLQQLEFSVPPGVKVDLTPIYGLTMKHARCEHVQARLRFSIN
Assay: CYP450 enzyme inhibition test (human liver microsomes)
Type: in vitro ADME
Conditions: read-out: IC50 against CYP1A2
pIC50: −log10 of the molar value.
endpoint_name: pIC50

# pIC50 of `COc1c([C@H]2[C@H](C(=O)Nc3ccnc(P(C)(C)=O)c3)S[C@@](C)(C(F)(F)F)[C@H]2C)ccc(F)c1F` = < 4.52

###

Biological target: hNav1.8 (Homo sapiens)
Sequence (Q9Y5Y9 whole entry): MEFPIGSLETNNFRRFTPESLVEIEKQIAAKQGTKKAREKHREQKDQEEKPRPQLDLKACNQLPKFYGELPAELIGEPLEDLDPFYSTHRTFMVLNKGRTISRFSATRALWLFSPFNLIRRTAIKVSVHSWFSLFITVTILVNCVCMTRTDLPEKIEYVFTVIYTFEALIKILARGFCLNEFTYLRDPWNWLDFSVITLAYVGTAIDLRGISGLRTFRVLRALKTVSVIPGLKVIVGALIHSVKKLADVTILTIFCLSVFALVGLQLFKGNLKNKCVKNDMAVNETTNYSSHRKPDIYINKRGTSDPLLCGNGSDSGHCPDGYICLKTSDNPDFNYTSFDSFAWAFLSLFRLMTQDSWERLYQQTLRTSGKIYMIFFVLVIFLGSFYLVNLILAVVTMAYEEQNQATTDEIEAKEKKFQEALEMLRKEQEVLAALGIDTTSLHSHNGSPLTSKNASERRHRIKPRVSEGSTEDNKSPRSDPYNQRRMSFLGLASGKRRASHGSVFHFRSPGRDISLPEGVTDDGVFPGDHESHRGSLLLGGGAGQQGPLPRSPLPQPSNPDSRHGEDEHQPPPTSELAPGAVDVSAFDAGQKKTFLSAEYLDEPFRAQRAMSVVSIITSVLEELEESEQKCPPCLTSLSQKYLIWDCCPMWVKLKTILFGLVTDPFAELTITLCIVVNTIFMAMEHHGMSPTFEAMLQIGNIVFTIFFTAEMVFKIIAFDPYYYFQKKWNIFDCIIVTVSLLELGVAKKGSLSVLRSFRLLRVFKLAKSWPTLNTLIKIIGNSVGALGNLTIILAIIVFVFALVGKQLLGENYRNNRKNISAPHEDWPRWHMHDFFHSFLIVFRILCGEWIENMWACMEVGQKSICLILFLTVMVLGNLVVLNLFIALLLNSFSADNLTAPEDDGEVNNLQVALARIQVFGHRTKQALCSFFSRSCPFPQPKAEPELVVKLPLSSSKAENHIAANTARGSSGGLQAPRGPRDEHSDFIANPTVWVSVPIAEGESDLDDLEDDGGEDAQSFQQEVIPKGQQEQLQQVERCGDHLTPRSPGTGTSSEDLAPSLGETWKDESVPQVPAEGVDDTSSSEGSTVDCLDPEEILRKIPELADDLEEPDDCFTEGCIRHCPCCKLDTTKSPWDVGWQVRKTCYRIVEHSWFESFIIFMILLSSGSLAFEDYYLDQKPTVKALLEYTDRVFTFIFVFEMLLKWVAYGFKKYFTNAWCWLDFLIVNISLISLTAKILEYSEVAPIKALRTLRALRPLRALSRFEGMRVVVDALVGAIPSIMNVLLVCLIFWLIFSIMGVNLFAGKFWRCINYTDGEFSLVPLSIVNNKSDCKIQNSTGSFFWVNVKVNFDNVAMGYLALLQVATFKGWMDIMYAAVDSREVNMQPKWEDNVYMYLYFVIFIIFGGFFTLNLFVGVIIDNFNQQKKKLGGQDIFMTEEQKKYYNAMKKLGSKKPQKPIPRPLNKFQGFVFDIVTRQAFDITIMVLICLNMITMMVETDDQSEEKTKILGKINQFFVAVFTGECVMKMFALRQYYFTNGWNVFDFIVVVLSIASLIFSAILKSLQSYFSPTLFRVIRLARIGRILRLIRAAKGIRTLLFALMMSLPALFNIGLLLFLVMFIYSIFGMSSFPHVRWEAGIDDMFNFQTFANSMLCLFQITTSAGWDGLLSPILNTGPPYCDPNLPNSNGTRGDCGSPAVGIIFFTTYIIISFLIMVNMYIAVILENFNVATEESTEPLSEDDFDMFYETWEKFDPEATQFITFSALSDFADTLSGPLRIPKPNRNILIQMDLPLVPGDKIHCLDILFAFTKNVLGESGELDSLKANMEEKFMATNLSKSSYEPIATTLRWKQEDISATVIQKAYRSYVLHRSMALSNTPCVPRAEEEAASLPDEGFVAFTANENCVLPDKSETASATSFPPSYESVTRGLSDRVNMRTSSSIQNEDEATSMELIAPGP
Assay: Nav1.8 manual patch clamp test
Settings: CHO cells stably expressing human Nav1.8; whole-cell patch clamp, half-inactivated state; read-out: Inhibitory activity (IC50) against hNav1.8
pIC50: −log10 of the molar value.
A collection of compounds and their measured pIC50

Examples with their reported pIC50 follow.
COc1c(C2C(C(=O)Nc3ccnc(C(N)=O)c3)SC(C)(C(F)(F)F)C2C)ccc(F)c1F (single isomer, unassigned) [Compound 1-2P2] : > 8.00
COc1c(C2C(C(=O)Nc3ccnc(C(N)=O)c3)SC(C)(C(F)(F)F)C2C)ccc(F)c1F (single isomer, unassigned) [Compound 1-2P1] : > 10.00

Read the next record carefully.
The recorded pIC50 for entry `C[C@H]1[C@@H](c2ccc(F)c3c2CCC3)[C@H](C(=O)Nc2ccnc(P(C)(C)=O)c2)S[C@@]1(C)C(F)(F)F` equals > 9.00
